# credit: patent EP4782434A1

# protocol-details: Thermodynamic solubility determination in FaSSIF
# Type: physicochemical
# experimental-parameters: thermodynamic from solid, FaSSIF pH 6.5, 37°C
observed-property: solubility at 24 h (µg/mL)

# smiles-data, solubility at 24 h [µg/mL]
data = [
    ("[2H]C([2H])([2H])O[C@@H](C)c1ccc(CS(=O)(=O)NC(=O)c2ccc(C([2H])([2H])[2H])cc2-c2cc(Cl)ncc2OC)cc1", 511),
    ("[2H]C([2H])([2H])O[C@@H](C)c1ccc(CS(=O)(=O)NC(=O)c2ccc(C([2H])([2H])[2H])cc2-c2cc(C(F)F)ncc2OC)cc1", 669),
]
